Test system: HT29 colon
assay procedure: NCI tumour cell line growth inhibition, 48 h
# reported TGI; entries follow
measured parameter: TGI (µM)

compound	unit of measurement	measurement qualifier	readout number
O=C(CSCC(=O)N/N=C/c1cccc(OCc2ccccc2)c1)N/N=C/c1cccc(OCc2ccccc2)c1	µM	>	100
C[C@H]1CCC/C=C/[C@@H]2C[C@H](O)C[C@H]2[C@H](O)[C@@H](S(=O)CCN)CC(=O)O1 (stereo partly drawn)	µM	=	0.0378
COc1cc2ccc1-c1cc(ccc1O)CC1c3cc4c(cc3CCN1C)Oc1c(OC)cc3c(c1O4)C(C2)N(C)CC3 (stereo not drawn)	µM	=	3.27
CCCCSC1=N/C(=C\c2ccco2)C(=O)N1	µM	>	100
Cc1cc(=O)[nH]c(NN2C(Cl)C(=O)C2c2cccc([N+](=O)[O-])c2)n1 (stereo not drawn)	µM	=	49.9
COc1ccc(-n2c3c(c4cc(O)ccc42)C(=O)c2ccccc2C3=O)cc1	µM	=	18.6
COc1cccc(Cn2cc3c(c2)-c2oncc2CC3)c1	µM	=	11.7
COC(=O)C(/C(=N/N)C(=O)Nc1cc(Cl)c(Cl)cc1Cl)c1nc2ccc(Cl)cc2[nH]c1=O (stereo not drawn)	µM	>	100
C[C@H]1C(OCCOC2O[C@@H]3O[C@@]4(C)CC[C@H]5[C@H](C)CCC([C@H]2C)[C@@]35O4)O[C@@H]2O[C@@]3(C)CC[C@H]4[C@H](C)CCC1[C@@]24O3 (stereo partly drawn)	µM	>	100
CCOC(=O)c1cc2cc(NC(=O)c3cc4cc([N+](=O)[O-])ccc4n3C)ccc2n1C	µM	>	100
Oc1cc(O)cc(/C=C/c2ccc(O)c(O)c2)c1	µM	=	57
CC(=O)O[C@H]1C(=O)[C@@]2(C)[C@H]([C@H](OC(=O)c3ccc([N+](=O)[O-])cc3)[C@]3(O)C[C@H](OC(=O)[C@H](O)[C@@H](NC(=O)c4ccccc4)c4ccccc4)C(C)=C1C3(C)C)[C@]1(OC(C)=O)CO[C@@H]1C[C@@H]2O	µM	>	25
CC(=O)c1c(O)ccc2c1CC(CC=O)O2 (stereo not drawn)	µM	>	100
